# testTarget: T1, hPRLR.mmh (soluble monomeric human PRLR) (human)
# T1 construct: called soluble monomeric PRLR protein
# T1 chain: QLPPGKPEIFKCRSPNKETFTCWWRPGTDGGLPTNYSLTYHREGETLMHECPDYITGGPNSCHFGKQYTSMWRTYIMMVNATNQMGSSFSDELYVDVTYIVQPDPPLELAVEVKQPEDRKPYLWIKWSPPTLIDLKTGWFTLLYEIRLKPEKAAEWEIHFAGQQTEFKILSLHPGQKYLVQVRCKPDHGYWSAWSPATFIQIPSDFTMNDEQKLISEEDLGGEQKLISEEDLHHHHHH
# assaySummary: SPR Biacore, 25 C, mAb capture
Reported Kd values follow for various binders
resultType: Kd

[[record]]
binder = "H1H6967N (antibody, human IgG1, V domains shown, Tested with human IgG1 Fc (H1H); also called H2M6967N) VH: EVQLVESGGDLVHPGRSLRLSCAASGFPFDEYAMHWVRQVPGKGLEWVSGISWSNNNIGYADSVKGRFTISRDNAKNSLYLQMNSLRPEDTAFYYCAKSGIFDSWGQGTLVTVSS VL: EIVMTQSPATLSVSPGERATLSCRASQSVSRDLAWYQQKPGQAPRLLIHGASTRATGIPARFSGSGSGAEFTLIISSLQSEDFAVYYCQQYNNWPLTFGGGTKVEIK"
recordedvalue = "1.35 nM"

[[record]]
binder = "H1H6960N (antibody, human IgG1, V domains shown, Tested with human IgG1 Fc (H1H); also called H2M6960N) VH: EVQLVESGGGLVKPGGSLRLSCAASGITFSSYSMNWVRQAPGKGLEWVSSISTRSSLIHYADSVKGRFTISRDNAKNSLYLQMNSLRDEDTAVYYCARWDAAAAFDYWGQGTLVIVSS VL: DIQLTQSPSFLSASVGDRVTITCWASQGISSYLAWYQQKPGKAPKLLIYVASTLQSGVPSRFSGSGSGTEFTLTISSLQPEDFATYFCQQLNSYPLTFGGGTKVEIK"
recordedvalue = "6.74 nM"

[[record]]
binder = "H1H6953N (antibody, human IgG1, V domains shown, Tested with human IgG1 Fc (H1H); also called H1M6953N) VH: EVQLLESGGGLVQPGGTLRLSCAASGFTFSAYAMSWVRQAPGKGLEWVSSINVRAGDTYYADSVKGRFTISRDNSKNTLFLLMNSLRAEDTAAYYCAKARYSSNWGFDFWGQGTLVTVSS VL: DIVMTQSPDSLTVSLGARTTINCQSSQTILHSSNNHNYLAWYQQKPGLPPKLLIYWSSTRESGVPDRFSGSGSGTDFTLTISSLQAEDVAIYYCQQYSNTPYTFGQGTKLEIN"
recordedvalue = "0.268 nM"

[[record]]
binder = "H1H6976N (antibody, human IgG1, V domains shown, Tested with human IgG1 Fc (H1H); also called H2M6976N) VH: EVQLLESGGGFVQPGGSLRLSCAASGFTFSSYAMSWVRQAPGKGLEWVSIISSNGRYTYYADSVKGRFTISRDNSKNTLYLQMNSLRAEDTAVYYCATVTGDWFDPWGQGTLVTVSS VL: DIQLTQSPSFLSASVGDRVTITCWASQDIDISLAWYQQKPGKAPKLLIYAASTLQSGVPSKFSGSGSGTDFTLTISSLQPEDFSTYYCQQLNSYPITFGQGTRLDIK"
recordedvalue = "1.59 nM"

[[record]]
binder = "H1H6785P (antibody, human IgG1, V domains shown, Human IgG1 Fc (H1H)) VH: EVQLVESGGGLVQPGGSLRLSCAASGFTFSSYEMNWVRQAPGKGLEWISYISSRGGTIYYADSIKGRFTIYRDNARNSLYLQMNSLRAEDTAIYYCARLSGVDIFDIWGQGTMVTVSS VL: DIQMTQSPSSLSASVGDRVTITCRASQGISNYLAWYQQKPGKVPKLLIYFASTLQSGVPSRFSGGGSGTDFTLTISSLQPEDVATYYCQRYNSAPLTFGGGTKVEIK"
recordedvalue = "0.567 nM"

